src = patent US20240067729A1

Catalogue of pIC50 readings, one per entry.
- assaySystem: T1, human PD-L1 Fc fusion (hPD-L1-Fc) (human, UniProt Q9NZQ7 19-238, limits assumed)
- T1 construct: not shown: Fc part
- T1 sequence (Q9NZQ7 19-238 limits assumed): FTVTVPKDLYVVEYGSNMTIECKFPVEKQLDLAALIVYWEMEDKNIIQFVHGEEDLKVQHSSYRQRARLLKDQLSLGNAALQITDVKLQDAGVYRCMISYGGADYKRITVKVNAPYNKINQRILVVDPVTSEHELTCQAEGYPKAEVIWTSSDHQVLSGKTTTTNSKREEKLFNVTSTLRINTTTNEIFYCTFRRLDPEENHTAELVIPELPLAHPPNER
- assayComment: blocking ELISA: antibody titrated + biotin-hPD-1-Fc 1 ug/mL on coated hPD-L1-Fc
Interpret pIC50 as the negative base-10 log of the concentration measured in mol/L.

Example entries begin here.
PAL787(3D10) (hybridoma CKH-3D10) (antibody, V domains shown, Mouse IgG purified from hybridoma supernatant) VH: QVTLKESGPGILQPSQTLSLTCSFSGFSLSTYGLGVGWIRQPSGKGLEWLANIWWNDDKFYDSVLKSRLTISKDTSNNQVFLKISSVDTSETATYYCAQTLHYYDGIAWFAYWGQGTLVTVSA VL: DIVMTQSQNFMSTSVGDRVSVTCKASHYVGTFVAWYQQKPGQSPKALIFSTSYRHTGVPDRFTGSGSGTDFTLTISNVQSEDLADYFCQQYYNSPLTFGAGTKLELK	8.39
PAL788(3E3) (hybridoma CKH-3E3) (antibody, V domains shown, Mouse IgG purified from hybridoma supernatant) VH: QVQLQQPGAELVKPGASVKLSCKASGYTFTSNWMNWVKQRPGRGLEWIGRIHPSDSETHYHQKFKSKATLTVDKSSSTAYIQLSSLTSEDSAVYYCAHSSGDYGRDYWGQGTTLTVSS VL: NIVLTQSPASLAVSLGQRATISCRASESVDSYGNSFMHWYQQKPGQPPKLLIYLASNLQSGVPARFSGSGSRTDFTLTIDPVEADDAATYYCQQNNEDPWTFGGGTKLEIK	9.05

Identify measured pIC50 associated with PAL752 (hybridoma 4G6.H4) (antibody, V domains shown, Mouse IgG purified from hybridoma supernatant) VH: EVQLQESGAELARPGASVKLSCKASGHAFTSDSINWVKQRIGQGLEWIGEIYPRSGNPYYNEKFKGKATLTADKSSSTAYMELRSLTSEDSAVYFCATDYYGRYFDVWGTGTTVTVSS VL: DIQMTQSSFSFSVSLGDRVTIICKASEDIYNRLAWYQQKPGNTPRLLISGATSLETGVPSRFSGSGSGKDYTLSITSLQTEDVATYYCQQYWSTPWTFGGGTKLEIK 8.60
